Molecular target: UCHL1 (Homo sapiens, UniProt P09936)
Sequence (P09936 1-220): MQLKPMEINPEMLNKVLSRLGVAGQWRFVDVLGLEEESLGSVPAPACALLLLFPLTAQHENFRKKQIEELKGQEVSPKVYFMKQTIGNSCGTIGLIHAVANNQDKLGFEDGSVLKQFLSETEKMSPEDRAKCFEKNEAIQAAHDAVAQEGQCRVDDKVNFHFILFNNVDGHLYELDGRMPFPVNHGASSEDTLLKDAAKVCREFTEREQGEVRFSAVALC
Test readout: IC50 (nM)
Numeric answer only, unit nM assumed.

**Q:** Form field - read-out: IC50; system: UCHL1 (Homo sapiens, UniProt P09936); submitted item: N#CN1CC[C@H](C(=O)Nc2ncc(N3CCOCC3)s2)C1
**A:** 230

Data provenance is paper PMC7611208.
